Tested on: MDA-MB-468 breast
ASSAY REMARKS: NCI tumour cell line growth inhibition, 48 h; in the data active means GI50 below about 0.43 µM; inactive means the rest
Outcomes: true for active, false for inactive

{"COMPOUND": "O=C(NCCCCC(c1ccc(F)cc1)c1ccc(F)cc1)NCCCc1cccnc1", "TARGET OR TEST SYSTEM": "MDA-MB-468 breast", "CATEGORY": "false"}
{"COMPOUND": "COC(=O)c1cc2c3c(cc(O)c2[nH]1)N(C(=O)C1Cc2cc(OC)c(OC)c(OC)c2N1)CC3CCl (centres undefined)", "TARGET OR TEST SYSTEM": "MDA-MB-468 breast", "CATEGORY": "true"}
{"COMPOUND": "C#Cc1cccc(Nc2ncnc3ccc(-c4cnc(Cl)c(NS(C)(=O)=O)c4)cc23)c1", "TARGET OR TEST SYSTEM": "MDA-MB-468 breast", "CATEGORY": "true"}
{"COMPOUND": "O=C(NC1CCN(Cc2ccccc2)CC1)c1cc(C(=O)NC2CCN(Cc3ccccc3)CC2)cc(C(=O)NC2CCN(Cc3ccccc3)CC2)c1", "TARGET OR TEST SYSTEM": "MDA-MB-468 breast", "CATEGORY": "false"}
